Measured On: XIAP-BIR3 (Homo sapiens)
Sequence (P98170 241-356 limits assumed): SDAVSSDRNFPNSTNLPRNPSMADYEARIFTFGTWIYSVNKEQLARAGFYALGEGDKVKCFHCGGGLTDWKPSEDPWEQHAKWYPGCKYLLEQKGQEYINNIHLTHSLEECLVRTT
Protocol Description: Biacore SPR solution competition binding assay vs smac7mer peptide, XIAP-BIR3
Recorded Conditions: SPR competition with captured smac7mer peptide; 100 nM XIAP-BIR3; 25° C.; read-out: XIAP-BIR3 Binding Biacore (Competitive) EC50
pEC50: −log10 of the molar value.
Measured pEC50 values are reported for all entries that follow.
Quantity Name: pEC50

>  <Compound>
CN[C@@H](C)C(=O)N[C@H](C(=O)N1CCC[C@H]1c1cncc(-c2ccc(F)c(C(=O)N[C@H]3CC[C@H](NC(=O)c4cc(-c5cncc([C@@H]6CCCN6C(=O)[C@@H](NC(=O)[C@H](C)NC)C6CCCCC6)c5)ccc4F)CC3)c2)c1)C1CCCCC1 [Example 2K-1]

>  <Reading>
6.49

$$$$
>  <Compound>
CN[C@@H](C)C(=O)N[C@H](C(=O)N1CCC[C@H]1c1cncc(-c2ccc(F)c(C(=O)NCc3ccc(CNC(=O)c4cc(-c5cncc([C@@H]6CCCN6C(=O)[C@@H](NC(=O)[C@H](C)NC)C6CCCCC6)c5)ccc4F)cc3)c2)c1)C1CCCCC1 [Example 2B-1]

>  <Reading>
6.45 to 6.46

$$$$
>  <Compound>
CN[C@@H](C)C(=O)N[C@H](C(=O)N1CCC[C@H]1c1cncc(-c2ccc(F)c(C(=O)NCCOCCOCCNC(=O)c3cc(-c4cncc([C@@H]5CCCN5C(=O)[C@@H](NC(=O)[C@H](C)NC)C5CCCCC5)c4)ccc3F)c2)c1)C1CCCCC1 [Example 2H-1]

>  <Reading>
6.60 to 6.61

$$$$
>  <Compound>
CN[C@@H](C)C(=O)N[C@H](C(=O)N1CCC[C@H]1c1cncc(-c2ccc(F)c(C(=O)NCCCCCCNC(=O)c3cc(-c4cncc([C@@H]5CCCN5C(=O)[C@@H](NC(=O)[C@H](C)NC)C5CCCCC5)c4)ccc3F)c2)c1)C1CCCCC1 [Example 2F-1]

>  <Reading>
6.51 to 6.52

$$$$
>  <Compound>
CN[C@@H](C)C(=O)N[C@H](C(=O)N1CCC[C@H]1c1cncc(-c2ccc(F)c(C(=O)NCCCCNC(=O)c3cc(-c4cncc([C@@H]5CCCN5C(=O)[C@@H](NC(=O)[C@H](C)NC)C5CCCCC5)c4)ccc3F)c2)c1)C1CCCCC1 [Example 2I-1]

>  <Reading>
6.49 to 6.50

$$$$
>  <Compound>
CN[C@@H](C)C(=O)N[C@H](C(=O)N1CCC[C@H]1c1cncc(-c2ccc(F)c(C(=O)NCCCOCCOCCCNC(=O)c3cc(-c4cncc([C@@H]5CCCN5C(=O)[C@@H](NC(=O)[C@H](C)NC)C5CCCCC5)c4)ccc3F)c2)c1)C1CCCCC1 [Example 2L-2]

>  <Reading>
6.31 to 6.32

$$$$
>  <Compound>
CN[C@@H](C)C(=O)N[C@H](C(=O)N1CCC[C@H]1c1cncc(-c2ccc(F)c(C(=O)NCCCOCCOCCOCCOCCOCCCNC(=O)c3cc(-c4cncc([C@@H]5CCCN5C(=O)[C@@H](NC(=O)[C@H](C)NC)C5CCCCC5)c4)ccc3F)c2)c1)C1CCCCC1 [Example 1A-1]

>  <Reading>
6.45

$$$$
>  <Compound>
CN[C@@H](C)C(=O)N[C@H](C(=O)N1CCC[C@H]1c1cncc(-c2ccc(F)c(C(=O)NCCNC(=O)c3cc(-c4cncc([C@@H]5CCCN5C(=O)[C@@H](NC(=O)[C@H](C)NC)C5CCCCC5)c4)ccc3F)c2)c1)C1CCCCC1 [Example 2A-1]

>  <Reading>
6.87

$$$$
>  <Compound>
CN[C@@H](C)C(=O)N[C@H](C(=O)N1CCC[C@H]1c1cncc(-c2ccc(F)c(C(=O)NCCCCCCCCCCNC(=O)c3cc(-c4cncc([C@@H]5CCCN5C(=O)[C@@H](NC(=O)[C@H](C)NC)C5CCCCC5)c4)ccc3F)c2)c1)C1CCCCC1 [Example 2D-1]

>  <Reading>
5.72 to 5.82

$$$$
>  <Compound>
CN[C@@H](C)C(=O)N[C@H](C(=O)N1CCC[C@H]1c1cncc(-c2ccc(F)c(C(=O)NCCCCCCCCNC(=O)c3cc(-c4cncc([C@@H]5CCCN5C(=O)[C@@H](NC(=O)[C@H](C)NC)C5CCCCC5)c4)ccc3F)c2)c1)C1CCCCC1 [Example 2G-1]

>  <Reading>
6.31 to 6.37

$$$$
>  <Compound>
CN[C@@H](C)C(=O)N[C@H](C(=O)N1CCC[C@H]1c1cncc(-c2ccc(F)c(C(=O)NCCCCCCCCCCCCNC(=O)c3cc(-c4cncc([C@@H]5CCCN5C(=O)[C@@H](NC(=O)[C@H](C)NC)C5CCCCC5)c4)ccc3F)c2)c1)C1CCCCC1 [Example 2E-1]

>  <Reading>
< 6.00

$$$$
>  <Compound>
CN[C@@H](C)C(=O)N[C@H](C(=O)N1CCC[C@H]1c1cncc(-c2ccc(F)c(C(=O)NNC(=O)c3cc(-c4cncc([C@@H]5CCCN5C(=O)[C@@H](NC(=O)[C@H](C)NC)C5CCCCC5)c4)ccc3F)c2)c1)C1CCCCC1 [Example 2N-2]

>  <Reading>
7.12

$$$$
>  <Compound>
CN[C@@H](C)C(=O)N[C@H](C(=O)N1CCC[C@H]1c1cncc(-c2ccc(F)c(C(=O)N3CC4(C3)CN(C(=O)c3cc(-c5cncc([C@@H]6CCCN6C(=O)[C@@H](NC(=O)[C@H](C)NC)C6CCCCC6)c5)ccc3F)C4)c2)c1)C1CCCCC1 [Example 2M-2]

>  <Reading>
6.75 to 6.76

$$$$
>  <Compound>
CN[C@@H](C)C(=O)N[C@H](C(=O)N1CCC[C@H]1c1cncc(-c2ccc(F)c(C(=O)NCCCOCCOCCOCCCNC(=O)c3cc(-c4cncc([C@@H]5CCCN5C(=O)[C@@H](NC(=O)[C@H](C)NC)C5CCCCC5)c4)ccc3F)c2)c1)C1CCCCC1 [Example 2J-2]

>  <Reading>
6.81

$$$$
>  <Compound>
CN[C@@H](C)C(=O)N[C@H](C(=O)N1CCC[C@H]1c1cncc(-c2ccc(F)cc2CNC(=O)c2ccc(-c3ccc(C(=O)NCc4cc(F)ccc4-c4cncc([C@@H]5CCCN5C(=O)[C@@H](NC(=O)[C@H](C)NC)C5CCCCC5)c4)cc3)cc2)c1)C1CCCCC1 [Example 3A]

>  <Reading>
6.89 to 6.90

$$$$
